Assay: MTD and pharmacokinetics and brain penetration after PO administration
Assay type: in vivo, Male C57BL/6 Mice
Conditions: male, C57BL/6; Mouse plasma, multiple administration, D5-300 mg/kg PO; read-out: AUClast (p)
readoutType: AUC(0-t) (ng·h/mL)
Your answer should be a plain number; it is taken to be in ng·h/mL.

Given item CN1CCN(c2cccc3nc([C@H]4CCC[C@@H](c5ncccc5Cl)N4)cn23)CC1 (single isomer, unassigned) , the value recorded as its AUC(0-t) is 76600

---

Here the recorded Papp A→B at 90 min, 10 μM is given for each entry.
Assay: in vitro
Conditions: human, Caco-2, pH 7.4

Please review the following examples before continuing.
compound="Cc1cccnc1[C@@H]1CCC[C@H](c2nc3cccc(N4CCN(C)CC4)n3c2C)N1C [Compound I-86]" readouttype="Papp A→B at 90 min, 10 μM" measvalue="1 to 100 nm/s"
compound="Cc1cccnc1[C@@H]1CCC[C@H](c2nc3ccccn3c2CN2CCOCC2)N1C [Compound I-73]" readouttype="Papp A→B at 90 min, 10 μM" measvalue="100 to 300 nm/s"
compound="Cc1cccnc1[C@@H]1CCC[C@H](c2cn3c(N4CCN(C5CCOCC5)CC4)cccc3n2)N1C [Compound I-53]" readouttype="Papp A→B at 90 min, 10 μM" measvalue="1 to 100 nm/s"

Please examine the following record next.
Given item C#Cc1c([C@H]2CCC[C@@H](c3ncccc3C)N2C)nc2cccc(N3CCN(C)CC3)n12 [Compound I-89] , the value recorded as its Papp A→B at 90 min, 10 μM is 1 to 100 nm/s

---

Here the recorded efflux ratio at 90 min, 10 μM is given for each entry.
Assay: in vitro
Details: human, Caco-2, pH 7.4

Please review the following examples before continuing.
compound="Cc1cccnc1[C@@H]1CCC[C@H](c2nc3ccccn3c2CN2CCN(C)CC2)N1C [Compound I-38]" measvalue="> 30"
compound="COc1cccnc1[C@@H]1CCC[C@H](c2nc3cccc(N4CCNC5(CC5)C4)n3c2Cl)N1 [Compound I-175]" measvalue="0.1 to 10"
compound="CCN1CCN(c2cccc3nc([C@H]4CCC[C@@H](c5ncccc5Cl)N4C)c(Cl)n23)CC1 [Compound I-125]" measvalue="0.1 to 10"

Given item Cc1cccnc1[C@@H]1CCC[C@H](c2nc3cccc(N4CCN(C(C)C)CC4)n3c2Br)N1C [Compound I-20] , the value recorded as its efflux ratio at 90 min, 10 μM is 0.1 to 10

Given item Cc1cccnc1[C@@H]1CCC[C@H](c2nc3cccc(N4CCN(C5CC5)CC4)n3c2Br)N1C [Compound I-67] , the value recorded as its efflux ratio at 90 min, 10 μM is 0.1 to 10

Given item CN1CCN(c2cccc3nc([C@H]4CCC[C@@H](c5ncccc5C(F)(F)F)N4C)cn23)CC1 [Compound I-80] , the value recorded as its efflux ratio at 90 min, 10 μM is 0.1 to 10

Given item CC(C)c1cccnc1[C@@H]1CCC[C@H](c2nc3cccc(N4CCN(C)CC4)n3c2Cl)N1C [Compound I-91] , the value recorded as its efflux ratio at 90 min, 10 μM is 0.1 to 10

Given item Cc1cccnc1[C@@H]1CCC[C@H](c2cn3c(N4CCN(C(C)C)CC4)cccc3n2)N1C [Compound I-15] , the value recorded as its efflux ratio at 90 min, 10 μM is 0.1 to 10

---

pIC50: −log10 of the molar value.
Assay system Jurkat cells expressing CXCR4 (Homo sapiens (Human)); read-out recorded as pIC50.

Please review the following examples before continuing.
compound="Cc1cccnc1[C@@H]1CCC[C@H](c2cn3c(N4CCN(C)CC4)cccc3n2)N1 [Compound I-187]" targetorsystem="Jurkat cells expressing CXCR4 (Homo sapiens (Human))" measvalue="7.00 to 11.00"
compound="Cc1cccnc1[C@@H]1CCC[C@H](c2cn3ccccc3n2)N1CCCCN [Compound I-2]" targetorsystem="Jurkat cells expressing CXCR4 (Homo sapiens (Human))" measvalue="6.00 to 7.00"
compound="Cc1cccnc1[C@@H]1CCC[C@H](c2cn3c(N4C5CCC4CNC5)cccc3n2)N1C [Compound I-110]" targetorsystem="Jurkat cells expressing CXCR4 (Homo sapiens (Human))" measvalue="7.00 to 11.00"
compound="CCOCc1c([C@H]2CCC[C@@H](c3ncccc3C)N2C)nc2cccc(N3CCN(C4CC4)CC3)n12 [Compound I-58]" targetorsystem="Jurkat cells expressing CXCR4 (Homo sapiens (Human))" measvalue="6.00 to 7.00"
compound="Cc1cccnc1[C@@H]1CCC[C@H](c2cn3c(N4C5CCC4CN(C)C5)cccc3n2)N1C [Compound I-69]" targetorsystem="Jurkat cells expressing CXCR4 (Homo sapiens (Human))" measvalue="7.00 to 11.00"
compound="Cc1cccnc1[C@@H]1CCC[C@H](c2nc3ccccn3c2C=C2CCN(C)CC2)N1C [Compound I-83]" targetorsystem="Jurkat cells expressing CXCR4 (Homo sapiens (Human))" measvalue="7.00 to 11.00"
compound="Cc1cccnc1[C@@H]1CCC[C@H](c2nc3cccc(N4CCN5CCCC5C4)n3c2Cl)N1C (stereo partly shown) [Compound I-113]" targetorsystem="Jurkat cells expressing CXCR4 (Homo sapiens (Human))" measvalue="7.00 to 11.00"
compound="Cc1cccnc1[C@@H]1CCC[C@H](c2nc3cccc(N4CCN(C5CC5)CC4)n3c2Cl)N1C [Compound I-93]" targetorsystem="Jurkat cells expressing CXCR4 (Homo sapiens (Human))" measvalue="7.00 to 11.00"

Given item CCN1CCN(c2cccc3nc([C@H]4CCC[C@@H](c5ncccc5C)N4C)c(COC(C)C)n23)CC1 [Compound I-60] , the value recorded as its pIC50 is 7.00 to 11.00

Given item Cc1cccnc1[C@@H]1CCC[C@H](c2nc3cccc(N4CC5CCC(C4)N5C)n3c2Cl)N1C [Compound I-137] , the value recorded as its pIC50 is 7.00 to 11.00

---

Assay: in vitro
Conditions: human, Caco-2, pH 7.4
Here the recorded Papp B→A at 90 min, 10 μM is given for each entry.

Please review the following examples before continuing.
compound="CCN1[C@@H](c2nc3cccc(N4CCN(C(C)C)CC4)n3c2Br)CCC[C@H]1c1ncccc1C [Compound I-45]" readouttype="Papp B→A at 90 min, 10 μM" measvalue="0.1 to 10 ×10⁻⁶ cm/s"
compound="Cc1cccnc1[C@@H]1CCC[C@H](c2cn3c(N4CCN(C(C)C)CC4)cccc3n2)N1C [Compound I-15]" readouttype="Papp B→A at 90 min, 10 μM" measvalue="10 to 30 ×10⁻⁶ cm/s"
compound="Cc1cccnc1[C@@H]1CCC[C@H](c2nc3ccccn3c2-c2cccnc2)N1 [Compound I-208]" readouttype="Papp B→A at 90 min, 10 μM" measvalue="10 to 30 ×10⁻⁶ cm/s"

Please examine the following record next.
Given item Cc1cccnc1[C@@H]1CCC[C@H](c2cn3c(-c4cccnc4)cccc3n2)N1C [Compound I-6] , the value recorded as its Papp B→A at 90 min, 10 μM is 10 to 30 ×10⁻⁶ cm/s

---

pIC50: −log10 of the molar value.
Assay system Jurkat cells expressing CXCR4 (Homo sapiens (Human)); read-out recorded as pIC50.

compound="Cc1cccnc1[C@@H]1CCC[C@H](c2cn3c(N4CCN(C5COC5)CC4)cccc3n2)N1C [Compound I-52]" targetorsystem="Jurkat cells expressing CXCR4 (Homo sapiens (Human))" readouttype=pIC50 measvalue="6.00 to 7.00"
compound="Cc1c([C@@H]2CCC[C@H](c3ncccc3Cl)N2)nc2cccc(N3CCN(C)CC3)n12 (stereo in doubt) [Compound I-193]" targetorsystem="Jurkat cells expressing CXCR4 (Homo sapiens (Human))" readouttype=pIC50 measvalue="7.00 to 11.00"
compound="Cc1cccnc1[C@@H]1CCC[C@H](c2cn3c(N4C5CCC4CN(C)C5)cccc3n2)N1 [Compound I-186]" targetorsystem="Jurkat cells expressing CXCR4 (Homo sapiens (Human))" readouttype=pIC50 measvalue="7.00 to 11.00"
compound="Cc1cccnc1[C@@H]1CCC[C@H](c2nc3ccccn3c2N2CCN(C)CC2)N1 [Compound I-154]" targetorsystem="Jurkat cells expressing CXCR4 (Homo sapiens (Human))" readouttype=pIC50 measvalue="6.00 to 7.00"
compound="Cc1cccnc1[C@@H]1CC(=O)C[C@H](c2cn3c(N4CCN(C)CC4)cccc3n2)N1C [Compound I-3]" targetorsystem="Jurkat cells expressing CXCR4 (Homo sapiens (Human))" readouttype=pIC50 measvalue="7.00 to 11.00"
compound="Cc1cccnc1[C@@H]1CCC[C@H](c2nc3c(N)ccc(N4CCN(C)CC4)n3c2Cl)N1C [Compound I-164]" targetorsystem="Jurkat cells expressing CXCR4 (Homo sapiens (Human))" readouttype=pIC50 measvalue="7.00 to 11.00"

// compound C#Cc1c([C@H]2CCC[C@@H](c3ncccc3C)N2C)nc2cccc(N3CCN(C)CC3)n12 [Compound I-89] , assay Jurkat cells expressing CXCR4 (Homo sapiens (Human)), pIC50 value: 7.00 to 11.00
